- Tested on: SEM cells
- Run Description: cell viability relative to DMSO control; higher = less cytotoxic
- Condition Set: RPMI 5 mM glucose + 10% dialyzed FBS; 48 h; 0.000781 µM
Experimental Readout: cell viability (%)
Give bare numbers, in %.

# annotated cases, reported cell viability shown
N#C[C@H](O[C@@H]1O[C@H](CO[C@@H]2O[C@H](CO)[C@@H](O)[C@H](O)[C@H]2O)[C@@H](O)[C@H](O)[C@H]1O)c1ccccc1 = 97.4
O=C(Nc1cccnn1)N1CCC(=Cc2cccc(Oc3ccc(C(F)(F)F)cn3)c2)CC1 = 92.8

Quick request: cell viability for each listed item, please.
1. O=C1NC(=O)/C(=C/c2ccc(-c3ccc(F)cc3O)o2)S1
2. C1CCN2C[C@H]3C[C@H](\C=C/4CCCN[C@@H]34)[C@H]2C1

result:
1: 114; 2: 99.6

Quick request: cell viability for each listed item, please.
1. Nc1nc(Cl)nc2c1ncn2[C@@H]1O[C@H](CO)[C@@H](O)[C@@H]1F
2. CCN(c1ccccc1)c1cc(NC)[n+](C)c(C)n1

result:
1. 12.6
2. 101

* * *

- Tested on: SEM cells
- Run Description: cell viability relative to DMSO control; higher = less cytotoxic
- Condition Set: RPMI 5 mM glucose + 10% dialyzed FBS; 48 h; 5.12 µM
Experimental Readout: cell viability (%)
One number for each entry, in %.

# annotated cases, reported cell viability shown
OC[C@H]1O[C@@H](Oc2cc(O)cc(/C=C/c3ccc(O)cc3)c2)[C@H](O)[C@@H](O)[C@@H]1O = 114
NC/1=N/C(=O)N(/C=N1)[C@@H]2O[C@H](CO)[C@@H](O)[C@H]2O = 38.9

Kindly review the next compound as well.
query: I have this compound here, `O=C(Nc1cccnn1)N1CCC(=Cc2cccc(Oc3ccc(C(F)(F)F)cn3)c2)CC1` , and I need its recorded cell viability.
result: 93.7

* * *

- System: P12-Ichikawa
- Run Description: cell viability relative to DMSO control; higher = less cytotoxic
- Condition Set: RPMI 5 mM glucose + 10% FBS; 48 h; 0.00234 µM
Give measured cell viability for each item. Keep answers brief.
Give bare numbers, in %.

# annotated cases, reported cell viability shown
CCOC1=CC=CC=C1N\2C(=O)C3=C(C=CC=C3)\N=C2C(C)N4CCN(CC4)C(=O)COC5=CC=C(Cl)C=C5 (stereo not given) = 126
NC(=O)c1ncn([C@@H]2O[C@H](CO)[C@@H](O)[C@H]2O)c1O = 123
CCOc1cc(CC(=O)N[C@@H](CC(C)C)c2ccccc2N2CCCCC2)ccc1C(=O)O = 130
CCCC1OC2C[C@H]3[C@@H]4CCC5=CC(=O)C=C[C@]5(C)[C@H]4C(O)C[C@]3(C)[C@]2(C(=O)CO)O1 (stereo not given in full) = 114
COc1ncc(-c2ccc3c(Nc4cc(Oc5cc(F)cc(F)c5)cc(C(=O)O)c4)c([S+](=O)([O-])NC4CC4)cnc3c2)c(OC)n1 = 87.8

Quick request: cell viability for each listed item, please.
1. C[C@@H](O)[C@@H]1NC(=O)[C@H](CCCCN)NC(=O)[C@@H](Cc2c[nH]c3ccccc23)NC(=O)[C@H](Cc2ccccc2)NC(=O)[C@@H](NC(=O)[C@H](N)Cc2ccccc2)CSSC[C@@H](C(=O)N[C@H](CO)[C@@H](C)O)NC1=O
2. CC(C)(C)[C@H](NC(=O)c1ccc(N)c(Cl)c1)C(=O)N1CCC[C@H]1C(=O)N[C@H](C#N)CC(=O)O
3. C[S+](=O)([O-])c1ccc(Oc2cc(F)cc(C#N)c2)c2c1[C@H](O)C(F)(F)C2
4. N=C1N[C@H]2[C@H](CS[C@H]2CCCCC(=O)O)N1

result:
1. 85.1
2. 124
3. 100
4. 130

Quick request: cell viability for each listed item, please.
1. COC(=O)\C1=C\CCN(C)C1
2. CN1CCN(CCCN2c3ccccc3Sc3ccc(C(F)(F)F)cc32)CC1
3. CC/1=C(\O)C(=O)\C=C2/C1=C/C=C3\[C@@]2(C)CC[C@@]4(C)[C@@H]5C[C@@](C)(CC[C@]5(C)CC[C@]34C)C(O)=O

result:
[115, 108, 97.3]

Quick request: cell viability for each listed item, please.
1. CCN(c1ccccc1)c1cc(NC)[n+](C)c(C)n1
2. Cc1onc(-c2ccccc2)c1C(=O)N[C@@H]1C(=O)N2[C@@H]1SC(C)(C)[C@@H]2C(=O)[O-].[Na+]
3. CCOC(=O)\C1=C\[C@@H](OC(CC)CC)[C@H](NC(C)=O)[C@@H](N)C1

result:
[114, 117, 95.3]

* * *

- Test system: NOMO1
- Run Description: cell viability relative to DMSO control; higher = less cytotoxic
- Condition Set: RPMI 5 mM glucose + 10% FBS; 48 h; 15.4 µM
Experimental Readout: cell viability (%)
Answers are plain numbers, in %.

OCCn1cc(-c2cnc3nnn(Cc4ccc5ncccc5c4)c3n2)cn1 = 105
COC1=CC=C2/C3=N/CCN3\C(=N/C2=C1OC)NC(=O)C4=CC=CN=C4 = 115

Quick request: cell viability for each listed item, please.
1. CN1CCN(C(=O)O[C@H]2c3nccnc3C(=O)N2c2ccc(Cl)cn2)CC1
2. C[C@](N)(Cc1ccc(O)c(O)c1)C(=O)O
3. Cc1c[nH]c(-c2cnc(NCCNc3ccc(C#N)cn3)nc2-c2ccc(Cl)cc2Cl)n1
4. NC(=O)NO

result:
1. 93.8
2. 76.9
3. 81.3
4. 10.4

Quick request: cell viability for each listed item, please.
1. CC(C)Cc1ccc(C(C)C(=O)O)cc1 (stereo not drawn)
2. Cn1cc(C[C@@H](N)C(=O)O)c2ccccc21
3. C[C@@H](O)[C@@H]1NC(=O)[C@H](CCCCN)NC(=O)[C@@H](Cc2c[nH]c3ccccc23)NC(=O)[C@H](Cc2ccccc2)NC(=O)[C@@H](NC(=O)[C@H](N)Cc2ccccc2)CSSC[C@@H](C(=O)N[C@H](CO)[C@@H](C)O)NC1=O
4. COc1ncc(-c2ccc3c(Nc4cc(Oc5cc(F)cc(F)c5)cc(C(=O)O)c4)c([S+](=O)([O-])NC4CC4)cnc3c2)c(OC)n1
5. CCOC(=O)Nc1ccc(NCc2ccc(F)cc2)nc1N
6. CC(C)(O)/C=C\C(=O)[C@](C)(O)[C@H]1[C@H](O)C[C@]2(C)[C@@H]3CC=C4[C@@H](C=C(O)C(=O)C4(C)C)[C@]3(C)C(=O)C[C@@]12C
7. CNC(=O)[C@H](CC/1=C/N=C\2/C=C\C\C=C12)NC(=O)[C@H](CC(C)C)CC(=O)NO

result:
[86.1, 97.9, 81.1, 87.7, 114, 9.22, 11.9]

* * *

- Tested on: NOMO1
- Run Description: cell viability relative to DMSO control; higher = less cytotoxic
- Condition Set: HPLM + 10% dialyzed FBS; 48 h; 0.0632 µM
Give measured cell viability for each item. Keep answers brief.
One number for each entry, in %.

Cn1cc(C[C@@H](N)C(=O)O)c2ccccc21 = 92.4
C=CCc1ccc(O)c(-c2ccc(O)c(CC=C)c2)c1 = 112
CNC(=O)[C@H](CC/1=C/N=C\2/C=C\C\C=C12)NC(=O)[C@H](CC(C)C)CC(=O)NO = 120
CCOc1cc(CC(=O)N[C@@H](CC(C)C)c2ccccc2N2CCCCC2)ccc1C(=O)O = 141
CC(C)(O)/C=C\C(=O)[C@](C)(O)[C@H]1[C@H](O)C[C@]2(C)[C@@H]3CC=C4[C@@H](C=C(O)C(=O)C4(C)C)[C@]3(C)C(=O)C[C@@]12C = 111
COc1cc(C(=O)NS(=O)(=O)c2ccccc2C)ccc1Cc1cn(C)c2ccc(NC(=O)OC3CCCC3)cc12 = 79.7

Quick request: cell viability for each listed item, please.
1. CC/1=C(\O)C(=O)\C=C2/C1=C/C=C3\[C@@]2(C)CC[C@@]4(C)[C@@H]5C[C@@](C)(CC[C@]5(C)CC[C@]34C)C(O)=O
2. CN1CCN(CCOc2cc(OC3CCOCC3)c3c(Nc4c(Cl)ccc5c4OCO5)ncnc3c2)CC1
3. CCN1CCCC1CNC(=O)c1cc([S+](N)(=O)[O-])ccc1OC (centres undefined)

result:
1: 108; 2: 125; 3: 142

* * *

Give measured cell viability for each item. Keep answers brief.
- Test system: NOMO1
- Run Description: cell viability relative to DMSO control; higher = less cytotoxic
- Condition Set: HPLM + 10% dialyzed FBS; 48 h; 0.000781 µM
Give bare numbers, in %.

# annotated cases, reported cell viability shown
CO/N=C(\C(=O)N[C@@H]1C(=O)N2C(C(=O)OCOC(=O)C(C)(C)C)=C(/C=C\c3scnc3C)CS[C@H]12)c1csc(N)n1 = 81.6
Nc1ncnc2c1c(-c1cccc(OCc3ccccc3)c1)cn2C1CC(CN2CCCC2)C1 (stereo not drawn) = 113
OC[C@H]1O[C@@H](Oc2cc(O)cc(/C=C/c3ccc(O)cc3)c2)[C@H](O)[C@@H](O)[C@@H]1O = 85.6
CN(C)CCN1C(=O)c2cccc3cc(N)cc(c23)C1=O = 116
N#C/N=C(\NCCCCCCOc1ccc(Cl)cc1)Nc1ccncc1 = 49.3
CNC(=O)[C@H](CC/1=C/N=C\2/C=C\C\C=C12)NC(=O)[C@H](CC(C)C)CC(=O)NO = 108
CC1(C)C(N(O)C(=O)Nc2ccc(Cl)cc2)N(c2ccc(Cl)cc2)C(=O)N1CC(=O)N/N=C/C=C/c1ccc([N+](=O)[O-])o1 (stereo not drawn) = 121

Kindly review the next molecule as well.
query: I have this molecule here, `COc1cc(/C=C/C(=O)O)ccc1O` , and I need its recorded cell viability.
result: 76.1
